Where do the numbers come from? From patent US20130274178A1.

Listed next: entries and their corresponding IC50.
# assay_system: T1, HIV-1YU2 gp120 (HIV-1 strain YU-2, UniProt P35961 32-498, limits assumed)
# T1 construct: domain: gp120
# assay_name: SPR competition; gp120 binding to CD4
Where no end group is shown, it is not given here. [ ]: non-standard residue; d: D form.
Use µM as the unit, but write only the number.

XNNIPWS (not fully specified; residue 1 is citrulline (Cit); proline 5 is a 1,2,3-triazole-modified proline (Azp) 4-substituted with ferrocene, Rink amide resin; also called CitNNIPWS) [UM24]
0.081
ENNI[Azp‑triazole‑ferrocene]WS-NH2 (Rink amide resin; also called ENNIPWS) [UM23]
0.088

Let's switch to this binder now.
Request: Give the measured IC50 of EINNI[Azp‑triazole‑ferrocene]WS-NH2 (Rink amide resin) [UM13] .
Response: 0.079
